# Test target: Taq DNA polymerase (UniProt P19821 P19821:1-832)
# Sequence (P19821 whole entry, one chain of several): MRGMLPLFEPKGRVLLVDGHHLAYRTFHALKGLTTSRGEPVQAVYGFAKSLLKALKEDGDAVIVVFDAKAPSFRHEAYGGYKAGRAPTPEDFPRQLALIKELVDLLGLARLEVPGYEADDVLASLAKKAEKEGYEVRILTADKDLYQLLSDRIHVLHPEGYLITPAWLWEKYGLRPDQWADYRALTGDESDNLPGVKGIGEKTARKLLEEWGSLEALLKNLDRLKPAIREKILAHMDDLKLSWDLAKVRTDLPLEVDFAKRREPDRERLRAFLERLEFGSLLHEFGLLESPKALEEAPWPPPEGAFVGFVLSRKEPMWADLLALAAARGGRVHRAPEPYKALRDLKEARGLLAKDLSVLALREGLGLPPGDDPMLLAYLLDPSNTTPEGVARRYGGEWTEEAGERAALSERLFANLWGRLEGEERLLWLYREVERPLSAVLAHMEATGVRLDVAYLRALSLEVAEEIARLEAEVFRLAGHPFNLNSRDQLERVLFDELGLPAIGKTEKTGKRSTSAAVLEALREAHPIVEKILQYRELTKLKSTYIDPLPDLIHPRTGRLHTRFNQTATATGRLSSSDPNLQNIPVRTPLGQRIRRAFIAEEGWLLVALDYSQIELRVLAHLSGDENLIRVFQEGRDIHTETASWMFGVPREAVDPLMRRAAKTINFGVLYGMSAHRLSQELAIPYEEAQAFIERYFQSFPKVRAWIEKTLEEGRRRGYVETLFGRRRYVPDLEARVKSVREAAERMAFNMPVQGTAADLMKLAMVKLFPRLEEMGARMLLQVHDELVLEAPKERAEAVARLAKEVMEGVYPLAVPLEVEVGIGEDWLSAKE
# Test summary: inhibition; hairpin extension assay; IT50 34 C
# Condition: tags: rTaq, 94 kDa, Roche Molecular Systems / Perkin Elmer
pIC50: −log10 of the molar value.

{"columns": ["Binder", "pIC50"],
 "data": [
  ["Trnc.21 (ssDNA) DNA: TGGCGGAGCGATCATCTCAGAGCATTCTTAGCGTTTTGTTCTTGTGTATGA", 7.68]
]}
